FYI, the data here is from PubChem BioAssay (NCI).

test system: TK-10 renal; assay: NCI tumour cell line growth inhibition, 48 h
reported-endpoint: TGI

Task: // query TGI value for entry CC1(C)CC(=O)C2=C(C1)NC(SCC(=O)O)=C(C#N)C2c1ccc(Br)cc1 (stereo not given)
Result: > 100 µM

Task: // query TGI value for entry CCOC(=O)CCCn1c(SC)nc2cc(-c3ccco3)[nH]c2c1=O
Result: > 100 µM

Task: // query TGI value for entry CCOC(=O)/C(=C\c1ccc(OCc2ccccc2)c(OC)c1)C(=O)c1ccccc1
Result: 61 µM

Task: // query TGI value for entry [N-]=[N+]=C(C(=O)OCC#CCOC(=O)C(=[N+]=[N-])S(=O)(=O)c1ccccc1)S(=O)(=O)c1ccccc1
Result: > 10 µM

Task: // query TGI value for entry CN(C)NC1=NS(=O)(=O)c2cc3c(cc2S1)N(N(C)C)C(=O)c1cc2c(cc1N(N(C)C)C3=O)SC(NN(C)C)=NS2(=O)=O
Result: > 10 µM

Task: // query TGI value for entry Cc1ccc(S(=O)(=O)Nc2nc3ccccc3c(=O)n2C2CCCCC2)cc1
Result: > 100 µM

Task: // query TGI value for entry [N-]=[N+]=NC1=NNC2(C(=O)N1)c1ccccc1-c1ccccc12
Result: > 100 µM

Task: // query TGI value for entry N#CC1=C(N)OC2=C(COc3ccc(F)cc32)C1c1ccc(Cl)cc1 (stereo not given)
Result: > 100 µM

Task: // query TGI value for entry COc1ccc(-c2cc(C3CC3)nc(SCC(=O)O)c2C#N)cc1
Result: > 100 µM

Task: // query TGI value for entry CC(=O)N1CC(C)(C)c2c1cc(C)c(O)c2C
Result: > 100 µM

Task: // query TGI value for entry Cc1cccc(C)c1NC(=O)CCCC(=O)CC(=O)/C=C/c1ccccc1
Result: > 100 µM

Task: // query TGI value for entry CCn1nc(-c2ccccc2)c2c1N(C)c1ccccc1-n1c(-c3ccccc3)nnc1-2
Result: 31.1 µM

Task: // query TGI value for entry O=C1OC(C2Cc3ccccc3C2=O)c2ccccc21 (stereo not given)
Result: > 100 µM

Task: // query TGI value for entry CCN1C(=O)N(CC)C2C1NN=c1s/c(=C3\C(=O)N(CC(C)C)c4ccccc43)c(=O)n12 (stereo not given)
Result: > 56.6 µM

Task: // query TGI value for entry C=CC[C@H]1C[C@@]2(C)OC[C@H](C(C)C)N2C1=O
Result: > 100 µM

Task: // query TGI value for entry Cc1cc(O)c(C(=O)CC2(O)C(=O)Nc3c(Cl)cc(Cl)cc32)c(=O)o1 (stereo not given)
Result: > 100 µM

Task: // query TGI value for entry CC(=O)Nc1nc(SCc2ccccc2)c2ncn(C(C)=O)c2n1
Result: 78.3 µM

Task: // query TGI value for entry COc1cc(NC(=O)c2cc(OC)c3ccn(C)c3c2)cc2c1C[C@]1(C)CC[C@@H](O)C(C)(C)[C@H]1O2
Result: > 100 µM

Task: // query TGI value for entry CC(=O)[C@H]1CC[C@H]2[C@@H]3CCC4=CC(=O)CC[C@]4(C)[C@H]3CC[C@]12C
Result: 52.2 µM

Task: // query TGI value for entry O=C(CNC(=O)OCc1ccccc1)Oc1ccccc1
Result: > 100 µM
